Numbers sourced from PubChem BioAssay AID2060891.

Measured viability, T/C values are reported for all entries that follow.
Tested on: K98450-129-R-PDC complex spheroid growth, percent test/control;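 note: luminescence used as a proxy for viable cell amount; spheroids exposed to agents for seven days before the viability readout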
Assay: Anticancer human tumor K98450-129-R-PDC patient-derived colon adenocarcinoma cell line growth inhibition [RAS]
Settings: second compound 0.003 µM; first compound 10 µM; active compounds read low
Excerpt: RAS pathway inhibitors in Combinations in Complex Spheroids A high-throughput screen of multi-cell type tumor spheroids was designed to identify active combinations of RAS pathway inhibitors and targeted small molecules. Complex spheroids include a stromal component modeled by human endothelial cells (HUVEC) and fibroblasts modeled by human mesenchymal stem cells (MSCs). […] Compounds. […] If the clinical Cmax for an agent had not been determined, the highest concentration tested was 10 microM. […]
Express the result in % but write the number alone.

These recorded examples may help you get a feel for the data.
1) CC(Nc1ccc2c(c1)OCCn1cc(N3C(=O)OCC3C(F)F)nc1-2)C(N)=O (stereo not drawn) + CCn1c(-c2cccnc2C(C)OC)c2c3cc(ccc31)N1CCOC(CC(NC(=O)C(C(C)C)N(C)C(=O)C3(F)CCN(C(=O)C#CC(C)(C)N(C)C)CC3)C(=O)N3CCCC(N3)C(=O)OCC(C)(C)C2)C1 ... 34.7
2) Cc1nc(N2CCC3(CC2)COC(C)C3N)c(CO)nc1Sc1ccnc(N)c1Cl (stereo not drawn) + CCn1c(-c2cc(N3CCN(C)CC3)cnc2C(C)OC)c2c3cc(ccc31)-c1csc(n1)CC(NC(=O)C1CC1C)C(=O)N1CCCC(N1)C(=O)OCC(C)(C)C2 ... 11
3) CC1(O)CCCC1n1c(=O)c(C(F)F)cc2cnc(NC3CCN(S(C)(=O)=O)CC3)nc21 (stereo not drawn) + CCn1c(-c2cccnc2C(C)OC)c2c3cc(ccc31)N1CCOC(CC(NC(=O)C(C(C)C)N(C)C(=O)C3(F)CCN(C(=O)C#CC(C)(C)N(C)C)CC3)C(=O)N3CCCC(N3)C(=O)OCC(C)(C)C2)C1 ... 31
4) CCC(CC)c1cc(NC2CCC(N)C2)n2nccc2n1 (stereo not drawn) + CCn1c(-c2cccnc2C(C)OC)c2c3cc(ccc31)N1CCOC(CC(NC(=O)C(C(C)C)N(C)C(=O)C3(F)CCN(C(=O)C#CC(C)(C)N(C)C)CC3)C(=O)N3CCCC(N3)C(=O)OCC(C)(C)C2)C1 ... 10.6

Task: Any idea what viability, T/C was measured for CCC(CC)c1cc(NC2CCC(N)C2)n2nccc2n1 (stereo not drawn) + CCn1c(-c2cc(N3CCN(C)CC3)cnc2C(C)OC)c2c3cc(ccc31)-c1csc(n1)CC(NC(=O)C1CC1C)C(=O)N1CCCC(N1)C(=O)OCC(C)(C)C2 ?
Result: 13.3

Task: Reported viability, T/C for CC(Nc1ccc2c(c1)OCCn1cc(N3C(=O)OCC3C(F)F)nc1-2)C(N)=O (stereo not drawn) + CCn1c(-c2cc(N3CCN(C)CC3)cnc2C(C)OC)c2c3cc(ccc31)-c1csc(n1)CC(NC(=O)C1CC1C)C(=O)N1CCCC(N1)C(=O)OCC(C)(C)C2 : what is it?
Result: 61.3

Task: Which viability, T/C is reported for this molecule? NC1c2ccccc2OC12CCN(c1cnc3c(N4CCCc5ncccc54)n[nH]c3n1)CC2 (stereo not drawn) + CCn1c(-c2cc(N3CCN(C)CC3)cnc2C(C)OC)c2c3cc(ccc31)-c1csc(n1)CC(NC(=O)C1CC1C)C(=O)N1CCCC(N1)C(=O)OCC(C)(C)C2
Result: 8.17

Task: Quick one: viability, T/C of Cc1nc(N2CCC3(CC2)COC(C)C3N)c(CO)nc1Sc1ccnc(N)c1Cl (stereo not drawn) + CCn1c(-c2cccnc2C(C)OC)c2c3cc(ccc31)N1CCOC(CC(NC(=O)C(C(C)C)N(C)C(=O)C3(F)CCN(C(=O)C#CC(C)(C)N(C)C)CC3)C(=O)N3CCCC(N3)C(=O)OCC(C)(C)C2)C1 ?
Result: 7.47
